- target-or-test-system: PolQ ATPase enzyme (1-894) (Homo sapiens (Human))
- method-description: Polθ ATPase enzymatic assay (0.5 nM enzyme concentration), ADP-Glo
- Type: biochemical
- test-parameters: 0.5 nM PolQ ATPase enzyme (1-894); average IC50
quantity-name: IC50 (nM)

P: COc1cnc(C(F)F)cc1-c1cc(-n2ncc(C)cc2=O)ncc1C(=O)Nc1nnc(C2C[C@@H]2C)s1 (single isomer, unassigned) [Compound 642]
Q: COc1cnc(C(F)F)cc1-c1cc(Cn2ccccc2=O)ncc1C(=O)Nc1nnc(C#CC2CC2)s1 [Compound 507]
R: COc1cnc(C(F)F)cc1-c1cc(-n2ccc(OC3COC3)cc2=O)ncc1C(=O)Nc1nnc(C#CC2CC2)s1 [Compound 610]
Rank the listed compounds by IC50, largest first. # answer = labels listed in requested order
Q, P, R

a: COc1cnc(C(F)F)cc1-c1cc(-n2ccc(C)cc2=O)ncc1C(=O)Nc1nnc(C2C[C@@H]2C2CCCO2)s1 (mixture of isomers) [Compound 633]
b: COc1cnc(C(F)F)cc1-c1cc(-n2ccc(C)cc2=O)ncc1C(=O)Nc1nnc([C@H]2C[C@@H]2c2cncs2)s1 (racemic) [Compound 579]
Short answer wanted: higher IC50, a or b ? # respond with the chosen item's label
a

----------
- target-or-test-system: PolQ ATPase enzyme (1-894) (Homo sapiens (Human), UniProt O75417)
- Sequence (O75417 1-894): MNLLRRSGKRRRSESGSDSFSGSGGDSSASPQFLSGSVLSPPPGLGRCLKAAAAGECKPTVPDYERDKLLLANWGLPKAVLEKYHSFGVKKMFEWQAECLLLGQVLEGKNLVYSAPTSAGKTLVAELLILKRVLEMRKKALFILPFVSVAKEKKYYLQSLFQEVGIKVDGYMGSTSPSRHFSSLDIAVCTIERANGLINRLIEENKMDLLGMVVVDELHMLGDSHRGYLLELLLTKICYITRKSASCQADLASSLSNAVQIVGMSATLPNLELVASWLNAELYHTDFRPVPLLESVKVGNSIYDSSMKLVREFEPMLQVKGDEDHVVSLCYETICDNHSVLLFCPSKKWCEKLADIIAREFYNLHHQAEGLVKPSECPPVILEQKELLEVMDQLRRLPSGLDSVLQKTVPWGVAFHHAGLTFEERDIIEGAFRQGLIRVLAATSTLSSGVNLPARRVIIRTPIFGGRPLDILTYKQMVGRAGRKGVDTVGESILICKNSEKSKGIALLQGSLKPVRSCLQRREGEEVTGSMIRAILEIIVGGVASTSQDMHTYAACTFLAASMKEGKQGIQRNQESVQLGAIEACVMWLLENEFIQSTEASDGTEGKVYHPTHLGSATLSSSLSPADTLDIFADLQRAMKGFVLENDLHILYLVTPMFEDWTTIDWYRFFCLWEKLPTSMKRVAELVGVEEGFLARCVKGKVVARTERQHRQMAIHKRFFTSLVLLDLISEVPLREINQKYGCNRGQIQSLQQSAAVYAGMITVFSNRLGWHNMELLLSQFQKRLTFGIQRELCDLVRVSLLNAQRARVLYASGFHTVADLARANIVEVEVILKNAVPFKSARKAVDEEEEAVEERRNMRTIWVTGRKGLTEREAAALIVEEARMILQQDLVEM
- method-description: Polθ ATPase enzymatic assay (0.5 nM enzyme concentration), ADP-Glo
- Type: biochemical
- test-parameters: 0.5 nM PolQ ATPase enzyme (1-894); average IC50
quantity-name: IC50 (nM)

{"compound": "COc1cnc(C(F)F)cc1-c1cc(C#CC(C)(C)O)ncc1C(=O)Nc1nnc([C@H]2C[C@@H]2C)s1 (racemic)", "unit-info": "nM", "IC50": 4.9}

A: COc1cnc(C(F)F)cc1-c1cc(-n2ccncc2=O)ncc1C(=O)Nc1nnc(C#CC2CC2)s1
B: COc1cnc(C(F)F)cc1-c1cc(C#CC2CCCN(C)C2)ncc1C(=O)Nc1nnc(C#CC2CC2)s1 (racemic)
C: C#C[C@H]1C[C@@H]1c1nnc(NC(=O)c2cnc(N3CCN(C(=O)OCC)C4(CC4)C3=O)cc2-c2cc(C(F)F)ncc2OC)s1
Put the items in sequence by IC50, from largest down. # answer = labels listed in requested order
B, C, A
(B: 1.8 nM, C: 1.1 nM, A: 0.27 nM)

----------
- target-or-test-system: PolQ ATPase enzyme (1-894) (Homo sapiens (Human))
- method-description: Polθ ATPase enzymatic assay (0.5 nM enzyme concentration), ADP-Glo
- Format: biochemical
- test-parameters: 0.5 nM PolQ ATPase enzyme (1-894); average IC50
quantity-name: IC50 (nM)

{"molecule": "C#C[C@@]1(F)CC1c1nnc(NC(=O)c2cnc(-n3ccc(C)cc3=O)cc2-c2cc(C(F)F)ncc2OC)s1 (mixture of isomers)", "IC50, nM": 0.47}
{"molecule": "COc1cnc(C(F)F)cc1-c1cc(-n2ccc(C)cc2=O)ncc1C(=O)Nc1nnc([C@H]2C[C@@H]2C2CCOCC2)s1 (racemic)", "IC50, nM": 0.99}
{"molecule": "C#C[C@H]1C[C@@H]1c1nnc(NC(=O)c2cnc(C#CCN3CCOCC3)cc2-c2cc(C(F)F)ncc2OC)s1", "IC50, nM": 1}

a: COc1cnc(C(F)F)cc1-c1cc(-n2ccc(C)cc2=O)ncc1C(=O)Nc1nnc([C@H]2C[C@@H]2F)s1
b: COc1cnc(C(F)F)cc1-c1cc(-n2cccc(Cl)c2=O)ncc1C(=O)Nc1nnc([C@H]2C[C@@H]2C)s1
c: COc1cnc(C(F)F)cc1-c1cc(C#CCn2cccn2)ncc1C(=O)Nc1nnc(C#CC2CC2)s1
Order the records, beginning with the lowest IC50 and ending with the highest. # answer = labels listed in requested order
b, a, c
(b: 0.79 nM, a: 1.9 nM, c: 15 nM)

----------
- target-or-test-system: PolQ ATPase enzyme (1-894) (Homo sapiens (Human))
- method-description: Polθ ATPase enzymatic assay (0.5 nM enzyme concentration), ADP-Glo
- Type: biochemical
- test-parameters: 0.5 nM PolQ ATPase enzyme (1-894); average IC50
quantity-name: IC50 (nM)

Here are 2 compounds together with their reported answers.
{"compound": "COc1cnc(Cl)cc1-c1cnccc1C(=O)Nc1nnc(C2C[C@H]2c2ccc(OC(F)F)cc2)s1 (stereo partly shown)", "target-or-test-system": "PolQ ATPase enzyme (1-894) (Homo sapiens (Human))", "quantity-name": "IC50", "assay-value": 0.36}
{"compound": "CNC(=O)Cn1cc(-c2cc(C(F)(F)F)ccc2OC)c(C(=O)Nc2nnc(C3C[C@H]3c3ccc(C#N)cc3)s2)cc1=O (stereo partly shown)", "target-or-test-system": "PolQ ATPase enzyme (1-894) (Homo sapiens (Human))", "quantity-name": "IC50", "assay-value": 0.25}

1: COc1cnc(C(F)F)cc1-c1cc(-c2ccc[nH]c2=O)ncc1C(=O)Nc1nnc(C#CC2CC2)s1
2: C=C1CC(c2nnc(NC(=O)c3cnc(-n4ccc(C)cc4=O)cc3-c3cc(C(F)F)ncc3OC)s2)C1
Pick one, 1 or 2 : lowest reported IC50. # respond with the chosen item's label
1
(1: 0.32 nM, 2: 3.6 nM)

----------
- target-or-test-system: PolQ ATPase enzyme (1-894) (Homo sapiens (Human))
- method-description: Polθ ATPase enzymatic assay (0.5 nM enzyme concentration), ADP-Glo
- Format: biochemical
- test-parameters: 0.5 nM PolQ ATPase enzyme (1-894); average IC50
quantity-name: IC50 (nM)

{"smiles-repr": "COc1cnc(C(F)F)cc1-c1cc(-n2ccc(C)cc2=O)ncc1C(=O)Nc1nnc(COC(C)(C)C)s1", "unit-info": "nM", "IC50": 25}

A: Cc1nnc(Cn2cc(-c3cc(C(F)F)ccc3Cl)c(C(=O)Nc3nc(C)c(C#CC4CC4)s3)cc2=O)o1
B: COc1cnc(C(F)F)cc1-c1cc(-c2ccn(C)c(=O)c2)ncc1C(=O)Nc1nnc(C#CC2CC2)s1
Short answer wanted: higher IC50, A or B ? # respond with the chosen item's label
B

----------
- target-or-test-system: PolQ ATPase enzyme (1-894) (Homo sapiens (Human))
- method-description: Polθ ATPase enzymatic assay (0.5 nM enzyme concentration), ADP-Glo
- Assay type: biochemical
- test-parameters: 0.5 nM PolQ ATPase enzyme (1-894); average IC50
quantity-name: IC50 (nM)

{"smiles-repr": "COc1cnc(C(F)F)cc1-c1cc(-c2ccc(C)cc2)ncc1C(=O)Nc1nnc(C#CC2CC2)s1", "target-or-test-system": "PolQ ATPase enzyme (1-894) (Homo sapiens (Human))", "unit-info": "nM", "IC50": 3.2}

P: COc1cnc(C(F)F)cc1-c1cc(-n2ccc(B(O)O)cc2=O)ncc1C(=O)Nc1nnc(C#CC2CC2)s1
Q: C#C[C@H]1C[C@@H]1c1nnc(NC(=O)c2cnc(N3CCN(C)C4(CC4)C3=O)cc2-c2cc(C(F)F)ncc2OC)s1
Pick one, P or Q : lowest reported IC50. # respond with the chosen item's label
Q

----------
- target-or-test-system: PolQ ATPase enzyme (1-894) (Homo sapiens (Human))
- method-description: Polθ ATPase enzymatic assay (0.5 nM enzyme concentration), ADP-Glo
- Format: biochemical
- test-parameters: 0.5 nM PolQ ATPase enzyme (1-894); average IC50
quantity-name: IC50 (nM)

{"compound": "COc1cnc(C(F)F)cc1-c1cc(C#CC2CCN(C)CC2)ncc1C(=O)Nc1nnc(C#CC2CC2)s1", "unit-info": "nM", "assay-value": 1}
{"compound": "COc1cnc(C(F)(F)F)nc1-c1cc(CC#N)ccc1C(=O)Nc1nnc(C#CC2CC2)s1", "unit-info": "nM", "assay-value": 0.73}
{"compound": "Cn1ccc(C2C=C(c3cc(C(F)(F)F)ncc3Cl)C(C(=O)Nc3ncc(C#CC4CC4)s3)=CC2=O)n1 (stereo not shown)", "unit-info": "nM", "assay-value": 7.4}

I: COc1cnc(C(F)F)cc1-c1cc(-n2ccc(C)cc2=O)ncc1C(=O)Nc1nnc(C2CC2(F)Cl)s1 (racemic)
II: COc1cnc(C(F)F)cc1-c1cc(C#CCn2cc(C)cn2)ncc1C(=O)Nc1nnc(C#CC2CC2)s1
Short answer wanted: higher IC50, I or II ? # respond with the chosen item's label
II

----------
- target-or-test-system: PolQ ATPase enzyme (1-894) (Homo sapiens (Human), UniProt O75417)
- method-description: Polθ ATPase enzymatic assay (0.5 nM enzyme concentration), ADP-Glo
- Type: biochemical
- test-parameters: 0.5 nM PolQ ATPase enzyme (1-894); average IC50
quantity-name: IC50 (nM)

Here are 2 compounds together with their reported answers.
{"compound": "COc1cnc(C(F)F)cc1-c1cc(C#CCN2C[C@@H](C)O[C@@H](C)C2)ncc1C(=O)Nc1nnc(C#CC2CC2)s1 [Compound 529]", "IC50, nM": 0.59}
{"compound": "C#Cc1nnc(NC(=O)c2cnc(-n3ccc(C)cc3=O)cc2-c2cc(C(F)F)ncc2OC)s1 [Compound 518]", "IC50, nM": 1.4}

A: COc1cnc(C(F)F)cc1-c1cc(-n2ccc(C)cc2=O)ncc1C(=O)Nc1nnc(CC(C)(C)OC)s1 [Compound 568]
B: COc1cnc(C(F)F)cc1-c1cc(-n2ccc(C)cc2=O)ncc1C(=O)Nc1nnc([C@H]2C[C@@H]2C)s1 [Compound 545]
Pick one, A or B : lowest reported IC50. # respond with the chosen item's label
B
(B: 1.1 nM, A: 45 nM)
